# TARGET_DESC: Full-length, GST-tagged, human CaMKIIδ (Homo sapiens, UniProt Q13557)
# Construct: Full-Length, Glutathione-S-Transferase(GST)-Tagged, Human CaMKIIδ was purchased from Carna Biosciences; purchased Carna Biosciences 02-111
# Sequence (Q13557 1-478 isoform Q13557-12): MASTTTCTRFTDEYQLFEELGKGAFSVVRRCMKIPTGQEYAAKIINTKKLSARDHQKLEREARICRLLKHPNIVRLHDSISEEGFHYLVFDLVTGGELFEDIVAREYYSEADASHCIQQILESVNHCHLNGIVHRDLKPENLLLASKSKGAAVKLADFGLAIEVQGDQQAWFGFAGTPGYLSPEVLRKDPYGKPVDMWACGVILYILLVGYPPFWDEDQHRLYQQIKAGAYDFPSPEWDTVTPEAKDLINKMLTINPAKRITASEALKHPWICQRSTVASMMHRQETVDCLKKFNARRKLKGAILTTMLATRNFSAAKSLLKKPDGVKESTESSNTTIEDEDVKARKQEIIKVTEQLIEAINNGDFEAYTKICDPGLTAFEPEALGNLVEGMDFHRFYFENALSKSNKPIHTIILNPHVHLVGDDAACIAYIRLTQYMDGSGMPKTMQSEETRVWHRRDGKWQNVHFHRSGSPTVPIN
# TEST_NAME: CaMKIIδ binding assay (TR-FRET with BODIPY-labeled probe ligand)
# RECORDED_CONDITIONS: CaMKIIδ binding assay, results of Table 2
# Experimental: In vitro CaMKIIδ inhibitory activity was evaluated by a binding assay. Full-Length, Glutathione-S-Transferase(GST)-Tagged, Human CaMKIIδ was purchased from Carna Biosciences (product #02-111, Kobe, Japan). Full-length bovine calmodulin was purchased from Wako Pure Chemical Industries (Osaka, Japan). […] Time-Resolved Fluorescence Resonance Energy Transfer (TR-FRET) Assay […] The percentage of inhibition of test compounds was calculated according to equation (1) Inhibition (%)=100×([…]−T)/(μH−μL) (1) […]
pIC50: −log10 of the molar value.
PROPERTY_NAME: pIC50

Exercise: What value of pIC50 has been reported for the following molecule? C[C@@H](Cn1cnnn1)Oc1cc(-c2cnc(Nc3cc4c(cc3C3CC3)CCN(C3COC3)C4)nc2)ccc1C#N
Solution: 7.00 to 8.00

Exercise: Can you check COc1cc2c(cc1Nc1ncc(-c3ccc(Cl)c(O[C@@H](C)Cn4cnnn4)c3)cn1)CCN(C1COC1)C2 next?
Solution: > 8.00

Exercise: Here is the next molecule: Cc1cnc(N2CCC(N3CCOCC3)CC2)cc1Nc1ncc(-c2ccc(C#N)c(O[C@@H](C)Cn3cnnn3)c2)cn1
Solution: 7.00 to 8.00

Exercise: Input COc1cc(C2CCCNC2)ccc1Nc1ncc(-c2ccc(Cl)c(O[C@@H](C)Cn3cnnn3)c2)cn1 (stereo partly shown)
Solution: > 8.00

Exercise: Try the molecule C[C@@H](Cn1cnnn1)Oc1cc(-c2cnc(Nc3cn(C4CCN(Cc5ccsc5)CC4)nc3C(F)(F)F)nc2)ccc1Cl
Solution: > 8.00

Exercise: For COCCN1CCc2cc(OC)c(Nc3ncc(-c4ccc(Cl)c(O[C@@H](C)Cn5cnnn5)c4)cn3)cc2C1 then?
Solution: > 8.00

Exercise: Next record, please: COc1cc2c(cc1Nc1ncc(-c3ccc(Cl)c(O[C@@H](C)Cn4cnnn4)c3)cn1)CCN(C1COC1)CC2
Solution: > 8.00
